From: the supplement of paper PMC10567573

B1: TSN (parent)
chain: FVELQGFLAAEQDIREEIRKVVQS

Variants of: B1
Assay: protein stability index of a GFP-peptide fusion (GPS, HEK-293T) (PSI 1-6); higher = more stable;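 further: lentivirally expressed fusions sorted by FACS into six bins by GFP to DsRed ratio, PSI derived from sequencing read proportions per bin multiplied by bin number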
Details: c terminus: a fixed tail appended
Label scheme for protein stability index: lower than 2 is n, 2 and above is y.

{"MUTANT NAME": "V22P", "GROUP LABEL": "y"}
{"MUTANT NAME": "V2P", "GROUP LABEL": "y"}
{"MUTANT NAME": "Q12R", "GROUP LABEL": "y"}
{"MUTANT NAME": "R19Q", "GROUP LABEL": "y"}
{"MUTANT NAME": "Q12P", "GROUP LABEL": "n"}
{"MUTANT NAME": "F7Y", "GROUP LABEL": "n"}
{"MUTANT NAME": "R19S", "GROUP LABEL": "y"}
{"MUTANT NAME": "A9I", "GROUP LABEL": "y"}
{"MUTANT NAME": "F1H", "GROUP LABEL": "y"}
{"MUTANT NAME": "R19I", "GROUP LABEL": "n"}
{"MUTANT NAME": "V22W", "GROUP LABEL": "y"}
{"MUTANT NAME": "V21A", "GROUP LABEL": "n"}
{"MUTANT NAME": "R19K", "GROUP LABEL": "y"}
{"MUTANT NAME": "V2A", "GROUP LABEL": "y"}
{"MUTANT NAME": "D13H", "GROUP LABEL": "y"}
{"MUTANT NAME": "A9K", "GROUP LABEL": "n"}
{"MUTANT NAME": "E3Q", "GROUP LABEL": "y"}
{"MUTANT NAME": "I14A", "GROUP LABEL": "y"}
{"MUTANT NAME": "E16R", "GROUP LABEL": "y"}
{"MUTANT NAME": "V21Q", "GROUP LABEL": "y"}
